- assay.info: Activity against normal human astrocytes (HA)
- Type: cell-based
- condition.notes: human, normal human astrocytes (HA); initial assay, each tested concentration from 0.35 to 7.0 μM; read-out: Cell viability of HA cells

| compound | viability [%] |
| --- | --- |
| CC(=O)NC1CC(c2c(O)c3c(c4c(O)cc(C)cc24)C(=O)c2cccc(O)c2C3=O)OC(C)C1O (stereo not shown) [Compound 1, N-acetyl-N-demethylmayamycin] | 100 |

* * *

- assay.info: Activity against normal human astrocytes (HA)
- Assay type: cell-based
- condition.notes: human, normal human astrocytes (HA); initial assay, each tested concentration from 1.65 to 16.5 μM; read-out: Cell viability of HA cells
reported.property: viability (%)

| molecule | reported.property | value.reported |
| --- | --- | --- |
| CC(=O)OC1c2c3c(c(O)c4c2C(Cc2c(O)cc(C)cc2-4)OC1C)C(=O)c1cccc(O)c1C3=O (stereo not shown) | viability | 100 |

* * *

- System: glioma C6, U251, U87-MG, and SHG-44 cells
- assay.info: SRB assay, four glioma cell lines (summary ranges)
- Format: cell-based
- condition.notes: 72 h, read-out: IC50 range over four tested glioma cell lines
pIC50: −log10 of the molar value.
reported.property: pIC50

| compound | reported.property | value.reported |
| --- | --- | --- |
| COc1cccc2c1C(=O)c1c(O)c3c(c(O)c1C2=O)C[C@@](O)(C(=O)CO)C[C@@H]3O[C@H]1C[C@H](N)[C@H](O)[C@H](C)O1 [Doxorubicin (DOX), Doxorubicin, reference compound] | pIC50 | 5.05 to 6.05 |
| CC(=O)OC1c2c3c(c(O)c4c2C(Cc2c(O)cc(C)cc2-4)OC1C)C(=O)c1cccc(O)c1C3=O (stereo not drawn) | pIC50 | 5.14 to 5.48 |
| CC(=O)NC1CC(c2c(O)c3c(c4c(O)cc(C)cc24)C(=O)c2cccc(O)c2C3=O)OC(C)C1O (stereo not drawn) | pIC50 | 5.41 to 6.30 |

* * *

- System: normal human astrocytes (HA)
- assay.info: Activity against normal human astrocytes (HA)
- Format: cell-based
- condition.notes: Homo sapiens, Astrocyte; HA cells, second assay in higher concentrations
- Protocol: The compounds 1 and 2 were assayed for their activities inhibiting the proliferation of glioma C6, U251, U87-MG, and SHG-44 cells using the sulforhodamine B (SRB) assay. The SRB assay is a method that measures total cellular protein content for evaluating the activity of tested compounds against the proliferation of tumor cells. Doxorubicin (DOX) was used as a positive control. Glioma cells were treated with tested compounds for 72 h at different concentrations. […]

| compound | system.tested | unit.label | inequality.symbol | IC50 |
| --- | --- | --- | --- | --- |
| CC(=O)OC1c2c3c(c(O)c4c2C(Cc2c(O)cc(C)cc2-4)OC1C)C(=O)c1cccc(O)c1C3=O (centres unmarked) [Compound 2, streptoanthraquinone A] | normal human astrocytes (HA) | µM | > | 100 |
| CC(=O)NC1CC(c2c(O)c3c(c4c(O)cc(C)cc24)C(=O)c2cccc(O)c2C3=O)OC(C)C1O (centres unmarked) [Compound 1, N-acetyl-N-demethylmayamycin] | normal human astrocytes (HA) | µM | = | 25 |

* * *

- Test system: glioma SHG-44 cells
- assay.info: SRB assay, proliferation of glioma SHG-44 cells
- Assay type: cell-based
- condition.notes: Homo sapiens, 72 h, read-out: IC50 inhibiting the proliferation of cells, SHG-44
Listing: IC50 of selected molecules
reported.property: IC50 (µM)

| molecule | reported.property | value.reported |
| --- | --- | --- |
| CC(=O)OC1c2c3c(c(O)c4c2C(Cc2c(O)cc(C)cc2-4)OC1C)C(=O)c1cccc(O)c1C3=O (stereo not drawn) | IC50 | 6.5 |
| COc1cccc2c1C(=O)c1c(O)c3c(c(O)c1C2=O)C[C@@](O)(C(=O)CO)C[C@@H]3O[C@H]1C[C@H](N)[C@H](O)[C@H](C)O1 [Doxorubicin (DOX), Doxorubicin, reference compound] | IC50 | 9 |
| CC(=O)NC1CC(c2c(O)c3c(c4c(O)cc(C)cc24)C(=O)c2cccc(O)c2C3=O)OC(C)C1O (stereo not drawn) | IC50 | 3.9 |
